Target: IGF-1R (human cytoplasmic domain fused with GST) (Homo sapiens, UniProt P08069)
Construct: The human cytoplasmic domain of IGF-1R was cloned by fusion with glutathione S-transferase (GST); made in house; host or cells: SF21 insect cells (baculovirus, pFastBac-GST)
Sequence (P08069 960-1367 limits assumed): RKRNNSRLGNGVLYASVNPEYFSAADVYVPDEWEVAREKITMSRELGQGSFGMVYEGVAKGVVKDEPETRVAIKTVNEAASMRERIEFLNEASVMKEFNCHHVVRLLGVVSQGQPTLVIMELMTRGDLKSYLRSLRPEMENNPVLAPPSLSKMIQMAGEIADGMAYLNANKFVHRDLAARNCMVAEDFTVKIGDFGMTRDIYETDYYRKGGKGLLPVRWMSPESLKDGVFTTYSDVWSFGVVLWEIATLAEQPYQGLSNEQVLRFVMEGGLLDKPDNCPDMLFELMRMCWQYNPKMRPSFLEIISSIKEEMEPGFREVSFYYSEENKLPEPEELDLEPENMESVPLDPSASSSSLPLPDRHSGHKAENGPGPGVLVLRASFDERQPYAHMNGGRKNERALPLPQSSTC
Test: Kinase IGF-1R test (Test A): inhibition of autophosphorylation of the enzyme, HTRF
Format: biochemical
Conditions: preincubation with enzyme 90 minutes; 120 μM ATP; read-out: Test A 90′ IC50
Readout: IC50

Example entries and their recorded answers appear below.
compound="CC(C)(C)c1ccc(N2C(=O)N(Cc3ccnc(NC(=O)NCCCN4CCCC4)c3)C(C)(C)C2=O)cc1 [Example 9]" experimental_result="10 to 100 nM"
compound="CN(C)CC(=O)N1CC(C)(C)c2ccc(N3C(=O)N(Cc4ccnc(NC(=O)N(C)C)c4)C(C)(C)C3=O)cc21 [Example 31C]" experimental_result="> 100 nM"
compound="CC(C)(C)c1ccc(N2C(=O)N(Cc3ccnc(Nc4cccc(CN5CCCC5)c4)c3)C(C)(C)C2=O)cc1 [Example 31G]" experimental_result="< 10 nM"
compound="CC(C)(C)c1ccc(N2C(=O)N(Cc3ccnc(NC(=O)N4CCCC4)c3)C(C)(C)C2=O)cc1 [Example 19]" experimental_result="10 to 100 nM"
compound="CC(C)(C)c1ccc(N2C(=O)N(Cc3ccnc(NC(=O)NCCCCN4CCCC4)c3)C(C)(C)C2=O)cc1 [Example 12]" experimental_result="< 10 nM"

Prompt: Can you look up IC50 on IGF-1R (human cytoplasmic domain fused with GST) (Homo sapiens, UniProt P08069) for CN(C)C(=O)Nc1cc(CN2C(=O)N(c3ccc4c(c3)N(C(=O)CNC3CCCC3)CC4(C)C)C(=O)C2(C)C)ccn1 [Example 3] ?
Completion: 10 to 100 nM

Prompt: Kindly state the measured IC50 obtained for CN(C)CC(=O)N1CC(C)(C)c2ccc(N3C(=O)N(Cc4ccnc(Nc5cccnc5)c4)C(C)(C)C3=O)cc21 [Example 31B] with IGF-1R (human cytoplasmic domain fused with GST) (Homo sapiens, UniProt P08069).
Completion: 10 to 100 nM

Prompt: Field: IC50 (IGF-1R (human cytoplasmic domain fused with GST) (Homo sapiens, UniProt P08069)). Entry: CC(C)(C)c1ccc(N2C(=O)N(Cc3ccnc(NC(=O)N4CCC4)c3)C(C)(C)C2=O)cc1 [Example 18]
Completion: 10 to 100 nM

Prompt: Query IC50 on IGF-1R (human cytoplasmic domain fused with GST) (Homo sapiens, UniProt P08069) for CC(C)(C)c1ccc(N2C(=O)N(Cc3ccnc(NC4CC4)c3)C(C)(C)C2=O)cc1 [Example 31J]
Completion: < 10 nM

Prompt: Field: IC50 (IGF-1R (human cytoplasmic domain fused with GST) (Homo sapiens, UniProt P08069)). Entry: CC(C)(C)c1ccc(N2C(=O)N(Cc3ccnc(NC(=O)NC4CCCC4)c3)C(C)(C)C2=O)cc1 [Example 10]
Completion: 10 to 100 nM

Prompt: For the record CC(C)(C)c1ccc(N2C(=O)N(Cc3ccnc(Nc4cccnc4Cl)c3)C(C)(C)C2=O)cc1 [Example 31K] , what value of IC50 is listed for IGF-1R (human cytoplasmic domain fused with GST) (Homo sapiens, UniProt P08069)?
Completion: 10 to 100 nM

Prompt: Notebook entry, IGF-1R (human cytoplasmic domain fused with GST) (Homo sapiens, UniProt P08069) assay: IC50 of CN(C)C(=O)Nc1nccc(CN2C(=O)N(c3ccc(C(C)(C)C)cc3)C(=O)C2(C)C)n1 [Example 2] = ?
Completion: > 100 nM

Prompt: IC50 of CC(C)NCC(=O)N1CC(C)(C)c2ccc(N3C(=O)N(Cc4ccnc(Nc5cccnc5)c4)C(C)(C)C3=O)cc21 [Example 31D] on IGF-1R (human cytoplasmic domain fused with GST) (Homo sapiens, UniProt P08069)?
Completion: 10 to 100 nM
